Cited source for all entries: patent US20230056252A1

Known pKd of a selection of binders
# STUDY SYSTEM: T1, biotinylated CD3 epsilon:delta heterodimer protein (Amsbio AMS.CDD-H52WO) (Homo sapiens (Human), UniProt P07766 23-126; P04234 22-105)
# T1 construct: also called CD3 heterodimer
# PROTOCOL: BLI (Octet), CD3 on SA sensor, Fab analyte;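 also: biolayer interferometry with biotinylated CD3 epsilon:delta captured on streptavidin sensors, Fab analyte at several concentrations up to 300 nM, 100 s association then 300 s dissociation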
In simple prose, pKd is minus the logarithm base ten of a concentration in moles per litre.

[
  {
    "BINDER": "huSP34.7.2 Fab-HF (Fab, V domains shown, also called HC7+LC2) VH: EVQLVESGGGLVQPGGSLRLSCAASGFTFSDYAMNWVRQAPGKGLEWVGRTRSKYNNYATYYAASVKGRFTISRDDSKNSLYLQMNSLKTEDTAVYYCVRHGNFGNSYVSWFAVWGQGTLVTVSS VL: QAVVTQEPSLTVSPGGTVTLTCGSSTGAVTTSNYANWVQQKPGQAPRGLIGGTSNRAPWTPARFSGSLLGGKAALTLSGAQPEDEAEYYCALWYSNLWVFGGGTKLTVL",
    "VALUE": 6.30
  }
]

stdin: Hello, please tell me recorded pKd for this one: huSP34.5.5 Fab-HF (Fab, V domains shown, also called HC5+LC5) VH: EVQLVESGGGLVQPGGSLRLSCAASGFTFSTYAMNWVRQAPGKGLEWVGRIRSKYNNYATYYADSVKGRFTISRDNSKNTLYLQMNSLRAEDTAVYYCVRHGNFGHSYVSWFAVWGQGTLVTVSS VL: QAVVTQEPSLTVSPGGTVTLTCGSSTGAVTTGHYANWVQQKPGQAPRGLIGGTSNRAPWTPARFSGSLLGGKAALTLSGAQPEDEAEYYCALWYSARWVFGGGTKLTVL
stdout: 6.18

stdin: Return the recorded pKd value; entry: huSP34.6.2 Fab-HF (Fab, V domains shown, also called HC6+LC2) VH: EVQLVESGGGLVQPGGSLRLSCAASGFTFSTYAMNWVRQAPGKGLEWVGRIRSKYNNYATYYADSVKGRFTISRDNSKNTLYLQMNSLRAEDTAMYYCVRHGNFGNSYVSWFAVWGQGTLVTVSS VL: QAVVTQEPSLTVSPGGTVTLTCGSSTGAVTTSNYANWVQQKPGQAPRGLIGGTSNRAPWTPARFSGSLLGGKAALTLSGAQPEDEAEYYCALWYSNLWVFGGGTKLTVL
stdout: 6.45
